Listing of entries alongside the reported inhibition at 1 µM.
# test-system: Human Recombinant Matriptase 2 (Homo sapiens)
# Construct: purchased Enzo Life Sciences (an in-house preparation was also used) ALX-201-752-1
# Sequence (Q8IU80 1-811): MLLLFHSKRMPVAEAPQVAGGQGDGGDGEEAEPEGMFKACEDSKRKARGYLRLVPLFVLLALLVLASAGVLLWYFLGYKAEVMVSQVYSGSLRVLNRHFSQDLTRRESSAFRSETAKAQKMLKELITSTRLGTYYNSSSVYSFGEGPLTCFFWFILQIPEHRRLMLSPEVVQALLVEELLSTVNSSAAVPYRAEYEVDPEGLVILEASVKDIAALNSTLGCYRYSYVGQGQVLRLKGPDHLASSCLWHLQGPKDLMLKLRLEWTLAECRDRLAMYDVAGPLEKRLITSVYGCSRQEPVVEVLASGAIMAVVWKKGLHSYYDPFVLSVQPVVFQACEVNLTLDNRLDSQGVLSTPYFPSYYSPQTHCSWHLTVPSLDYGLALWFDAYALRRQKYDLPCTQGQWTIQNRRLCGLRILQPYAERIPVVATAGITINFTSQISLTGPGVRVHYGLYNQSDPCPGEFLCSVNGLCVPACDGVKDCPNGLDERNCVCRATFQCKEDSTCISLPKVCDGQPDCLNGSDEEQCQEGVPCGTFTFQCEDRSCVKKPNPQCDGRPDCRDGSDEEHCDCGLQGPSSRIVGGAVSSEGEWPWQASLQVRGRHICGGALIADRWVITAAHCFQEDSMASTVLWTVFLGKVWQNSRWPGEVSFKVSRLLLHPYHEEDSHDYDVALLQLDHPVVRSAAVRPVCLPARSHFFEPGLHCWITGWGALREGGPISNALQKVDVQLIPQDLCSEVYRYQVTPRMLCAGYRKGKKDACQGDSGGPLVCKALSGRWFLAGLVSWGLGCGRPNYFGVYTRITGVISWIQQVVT
# assay-info: Matriptase 2 fluorescence based inhibition assay, Method B (50 mM TRIS pH 7.5, 150 mM NaCl, 0.01% gelatin)
# Assay type: biochemical
# measurement-conditions: 1 uM compound; Assay Used = B (Method B); read-out: Mar-2 % inhibition at 1 uM
property: inhibition at 1 µM

compound	result
CC(C)(C)OC(=O)N[C@H]1CC[C@H](NC(=O)c2cc3ccc(C(=N)N)cc3n2Cc2cccc3ccccc23)CC1 [Compound I-787]	0 to 25%
N=C(N)c1ccc2cc(C(=O)NC3CCC(N)CC3)n(Cc3ccc(C(=N)N)c4ccccc34)c2c1 (centres unmarked) [Compound I-645]	25 to 50%
N=C(N)c1ccc2cc(C(=O)O)n(Cc3cc(Oc4ncccn4)cc4ccccc34)c2c1 [Compound I-693]	75 to 100%
CCOC(=O)NC(=N)c1ccc2cc(C(=O)O)n(Cc3cccc4ccccc34)c2c1 [Compound I-712]	0 to 25%
N=C(N)c1ccc2cc(C(=O)N[C@H]3CC[C@H](N)CC3)n(Cc3cccc4cc(OCCCc5ccccc5)ccc34)c2c1 [Compound I-770]	50 to 75%
Cc1ccc(S(=O)(=O)Oc2cc(Cn3c(C(=O)O)cc4ccc(C(=N)N)cc43)c3ccccc3c2)cc1 [Compound I-647]	75 to 100%
N=C(N)c1ccc2cc(C(=O)N[C@H]3CC[C@H](N)CC3)n(-c3cc(CO)c4ccccc4c3)c2c1 [Compound I-681]	75 to 100%
CC(=O)NC(=N)c1ccc2cc(C(=O)NC3CCN(C)CC3)n(Cc3cccc4ccccc34)c2c1 [Compound I-762]	0 to 25%
COC(=O)N[C@H]1CC[C@H](NC(=O)c2cc3ccc(C(=N)N)cc3n2Cc2cccc3ccccc23)CC1 [Compound I-735]	25 to 50%
N=C(N)c1ccc2cc(C(=O)N[C@H]3CC[C@H](N)CC3)n(Cc3cccc4cc(-c5ccccc5)ccc34)c2c1 [Compound I-768]	75 to 100%
N/C(=N\O)c1ccc2c(c1)cc(C(=O)O)n2Cc1cccc2ccccc12 [Compound I-660]	0 to 25%
COC(=O)c1cc2ccc(C(=N)N)cc2n1Cc1csc2ccccc12 [Compound I-708]	25 to 50%
COC(=O)c1cc2ccc(C(=N)N)cc2n1Cc1cc(O)cc2ccccc12 [Compound I-696]	50 to 75%
Cn1c(C(=O)O)c(Cc2cc(Oc3ccccc3)cc3ccccc23)c2cc(C(=N)N)ccc21 [Compound I-606]	25 to 50%
N=C(N)c1ccc2cc(C(=O)N[C@H]3CC[C@H](N)CC3)n(Cc3ccc(C(=O)N4CCCC4)c4ccccc34)c2c1 [Compound I-790]	25 to 50%
N=C(N)c1ccc2cc(C(=O)N[C@H]3CC[C@H](N)CC3)n(C[C@H]3CCCc4ccccc43)c2c1 (racemic) [Compound I-612]	25 to 50%
N=C(N)c1ccc2cc(C(=O)N[C@H]3CC[C@H](N)CC3)n(Cc3cc(Oc4ccccn4)cc4ccccc34)c2c1 [Compound I-599]	75 to 100%
N=C(N)c1ccc2cc(C(=O)O)n(Cc3cc(Oc4ccccc4)cc4ccccc34)c2c1 [Compound I-746]	50 to 75%
CN1CCC(COC(=O)c2cc3ccc(C(=N)N)cc3n2Cc2cccc3ccccc23)CC1 [Compound I-761]	75 to 100%
Cc1nnc(-c2cc3ccc(C(=N)N)cc3n2Cc2cccc3ccccc23)o1 [Compound I-751]	50 to 75%
N=C(N)c1ccc2cc(C(=O)N[C@H]3CC[C@H](N)CC3)n(Cc3cc(OCc4ccccc4)cc4ccccc34)c2c1 [Compound I-733]	75 to 100%
Cn1c(C(=O)O)c(Cc2cccc3ccccc23)c2cc(/C(N)=N/O)ccc21 [Compound I-641]	0 to 25%
N=C(N)c1ccc2cc(C(=O)Nc3ccc4ncccc4c3)n(Cc3cccc4ccccc34)c2c1 [Compound I-771]	25 to 50%
CC(C)COC(=O)NC(=N)c1ccc2cc(C(=O)NC3CCN(C)CC3)n(Cc3cccc4ccccc34)c2c1 [Compound I-783]	0 to 25%
N=C(N)c1ccc2cc(C(=O)N[C@H]3CC[C@H](N)CC3)n(Cc3cc(Oc4ccc(-c5ccccc5)cc4)cc4ccccc34)c2c1 [Compound I-715]	0 to 25%
CCOC(=O)c1cc2ccc(C(=N)N)cc2n1Cc1cc(S(=O)(=O)c2ccccc2)cc2ccccc12 [Compound I-669]	25 to 50%
N=C(N)c1ccc2cc(C(=O)N[C@H]3CC[C@H](N)CC3)n(Cc3cccc4c(OCc5ccccc5)cccc34)c2c1 [Compound I-769]	75 to 100%
N#Cc1ccc(Cn2c(C(=O)N[C@H]3CC[C@H](N)CC3)cc3ccc(C(=N)N)cc32)c2ccccc12 [Compound I-691]	75 to 100%
N=C(N)c1ccc2cc(C(=O)N[C@H]3CC[C@H](N)CC3)n(Cc3cc(OCCc4ccccc4)cc4ccccc34)c2c1 [Compound I-737]	75 to 100%

Origin of values: patent US12428415B2
